# SYSTEM TESTED: KRAS G12S (Homo sapiens (Human), UniProt P01116+P62937, G12S)
# Sequence (P01116-2 other isoform, or with tags, fused parts or gaps G12S): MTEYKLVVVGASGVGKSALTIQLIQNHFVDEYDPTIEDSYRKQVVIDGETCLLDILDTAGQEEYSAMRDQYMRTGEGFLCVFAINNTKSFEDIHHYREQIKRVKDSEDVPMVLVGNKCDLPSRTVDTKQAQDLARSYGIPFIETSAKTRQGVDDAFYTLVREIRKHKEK
# Sequence (P62937 whole entry): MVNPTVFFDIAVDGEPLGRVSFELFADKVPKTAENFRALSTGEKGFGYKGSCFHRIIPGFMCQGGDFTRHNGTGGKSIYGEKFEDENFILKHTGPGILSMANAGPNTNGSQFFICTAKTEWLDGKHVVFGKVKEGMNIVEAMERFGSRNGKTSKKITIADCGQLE
# ASSAY REMARKS: Ras-Raf (BRAF RBD) disruption / FRET / MOA assay, KRAS G12S
# Assay type: biochemical
# EXPERIMENTAL PARAMETERS: Ras-Raf disruption/FRET/MOA assay; class symbols; read-out: KRAS G12S FRET data IC50
pIC50: −log10 of the molar value.
Recorded pIC50, one value per entry.
READOUT KIND: pIC50

compound="CCn1c(-c2cccnc2[C@H](C)OC)c2c3cc(ccc31)-c1csc(n1)C[C@H](NC(=O)C[C@@H]1COC3(CN(C(=O)C#CC(C)(C)N(C)C)C3)O1)C(=O)N1CCC[C@H](N1)C(=O)OCC(C)(C)C2 (atropisomer, axis not shown)" result="5.00 to 6.00"
compound="CCn1c(-c2cccnc2[C@H](C)OC)c2c3cc(ccc31)N1CCO[C@@H](C[C@H](NC(=O)[C@H](C(C)C)N3CC[C@@]4(CCN(C(=O)C#CC(C)(C)N(C)C)C4)C3=O)C(=O)N3CCC[C@H](N3)C(=O)OCC(C)(C)C2)C1 (atropisomer, axis not shown)" result="< 5.00"
compound="CO[C@@H](C)c1ncccc1-c1c2c3cc(ccc3n1C)-c1cccc(c1)C[C@H](NC(=O)[C@H](C(C)C)N(C)C(=O)[C@H]1CCN(C(=O)C#CCN3CCOCC3)C1)C(=O)N1CCC[C@H](N1)C(=O)OCC(C)(C)C2 (atropisomer, axis not shown)" result="< 5.00"
compound=C=CC(=O)N1CC[C@H](C(=O)N(C)[C@H](C(=O)N[C@H]2Cc3cc(O)cc(c3)-c3ccc4c(c3)c(c(-c3ccccc3CCN3CCCC3)n4CC)CC(C)(C)COC(=O)[C@@H]3CCCN(N3)C2=O)C(C)C)C1 result="< 5.00"

###

# SYSTEM TESTED: K-Ras G13C (Homo sapiens (Human), UniProt P01116+P62937, G13C)
# Sequence (P01116-2 other isoform, or with tags, fused parts or gaps G13C): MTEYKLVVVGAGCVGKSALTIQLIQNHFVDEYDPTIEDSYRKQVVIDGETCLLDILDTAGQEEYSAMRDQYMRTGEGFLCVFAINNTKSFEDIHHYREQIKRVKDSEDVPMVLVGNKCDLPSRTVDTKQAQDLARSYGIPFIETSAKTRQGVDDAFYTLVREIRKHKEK
# Sequence (P62937 whole entry): as the sequence (P62937 whole entry) above
# ASSAY REMARKS: Ras-Raf (BRAF RBD) disruption / FRET / MOA assay, KRAS G13C
# Format: biochemical
# EXPERIMENTAL PARAMETERS: KRAS G13C; Ras-Raf disruption/FRET/MOA assay; read-out: IC50* KRAS G13C FRET data
READOUT KIND: IC50

compound=CCn1c(-c2cccnc2COC)c2c3cc(ccc31)-c1cc(O)cc(c1)C[C@H](NC(=O)[C@@H](C(C)C)N(C)C(=O)[C@H]1C[C@@H](C)N(C(=O)C#CCN(C)C)C1)C(=O)N1CCC[C@H](N1)C(=O)OCC(C)(C)C2 result="100 to 1000 nM"
compound="C=CC(=O)N1CC[C@@]2(CCN2C(=O)N(C)[C@H](C(=O)N[C@H]2Cc3nc(cs3)-c3ccc4c(c3)c(c(-c3cccnc3[C@H](C)OC)n4CC)CC(C)(C)COC(=O)[C@@H]3CCCN(N3)C2=O)C(C)C)C1 (atropisomer, axis not shown)" result="100 to 1000 nM"
compound="C=CC(=O)N(C)C1CN(C(=O)N(C)[C@H](C(=O)N[C@H]2Cc3nc(cs3)-c3ccc4c(c3)c(c(-c3cccnc3[C@H](C)OC)n4CC)CC(C)(C)COC(=O)[C@@H]3CCCN(N3)C2=O)C(C)C)C1 (atropisomer, axis not shown)" result="100 to 1000 nM"
compound="CCn1c(-c2cccnc2[C@H](C)OC)c2c3cc(ccc31)-c1csc(n1)C[C@H](NC(=O)[C@H](C(C)C)N(C)C(=O)N1C[C@@H]3CN(C(=O)C#CC(C)(C)N(C)C)CC[C@@H]31)C(=O)N1CCC[C@H](N1)C(=O)OCC(C)(C)C2 (atropisomer, axis not shown)" result="100 to 1000 nM"
compound="C/C=C/S(=O)(=O)N1CC[C@H](C(=O)N(C)[C@H](C(=O)N[C@H]2Cc3cc(O)cc(c3)-c3ccc4c(c3)c(c(-c3cccnc3[C@H](C)OC)n4CC)CC(C)(C)COC(=O)[C@@H]3CCCN(N3)C2=O)C(C)C)C1 (atropisomer, axis not shown)" result="10 to 100 nM"
compound=C=CC(=O)N1CC[C@H](C(=O)N(C)[C@H](C(=O)N[C@H]2Cc3nc(ns3)-c3ccc4c(c3)c(c(-c3cncnc3)n4CC)CC(C)(C)COC(=O)[C@@H]3CCCN(N3)C2=O)C(C)C)C1 result="> 10000 nM"
compound="C=CC(=O)N1CCO[C@@H]2CCN(C(=O)N(C)[C@H](C(=O)N[C@H]3Cc4nc(cs4)-c4ccc5c(c4)c(c(-c4cccnc4[C@H](C)OC)n5CC)CC(C)(C)COC(=O)[C@@H]4CCCN(N4)C3=O)C(C)C)C[C@@H]21 (atropisomer, axis not shown)" result="100 to 1000 nM"
compound="CCn1c(-c2cccnc2[C@H](C)OC)c2c3cc(ccc31)C1=CCCN(C1)C[C@H](NC(=O)[C@H](C(C)C)N(C)C(=O)C1(F)CCN(C(=O)C#CC(C)(C)N(C)C)CC1)C(=O)N1CCC[C@H](N1)C(=O)OCC(C)(C)C2 (atropisomer, axis not shown)" result="10 to 100 nM"
compound=C=CC(=O)N1CC(OC[C@H](C(=O)N[C@H]2Cc3cc(O)cc(c3)-c3ccc4c(c3)c(c(-c3cccnc3COC)n4CC)CC(C)(C)COC(=O)[C@@H]3CCCN(N3)C2=O)C(C)C)C1 result="100 to 1000 nM"

FYI, the data here is from patent US11566007B2.
